# Test system: SEM cells
# assay-method-text: cell viability relative to DMSO control; higher = less cytotoxic
# condition-notes: HPLM + 10% dialyzed FBS; 48 h; 46.1 µM
Measured cell viability of individual entries
Record the value in %, omitting the unit from your answer.

Here are 5 compounds together with their reported answers.
1) ClC1=CC\2=C(OC3=C(C=CC=C3)\N=C2N4CCNCC4)C=C1	89
2) O=C(O)COCCN1CCN(C(c2ccccc2)c2ccc(Cl)cc2)CC1 (centres undefined)	122
3) Cc1cc(Nc2nc(N[C@@H](C)c3ccc(F)cc3)c(C#N)cc2F)n[nH]1	7.41
4) Cc1cc(Nc2cc(CN3CCOCC3)c3nc(C)c(Cc4ccc(Cl)cc4F)n3n2)[nH]n1	21.4
5) CN1\N=C(N)/C2=C[N]([C@@H]3O[C@H](CO[P](O)(O)=O)[C@@H](O)[C@H]3O)C4=C2C1=NC=N4	2.9

Inquiry: What value of cell viability has been reported for the following compound? `N[S+](=O)([O-])c1cccc2c1C(=O)c1cccc(O)c1C2=O`
Reply text: 3.56

Inquiry: What value of cell viability has been reported for the following compound? `CC(C)N(CC[C@H](c1ccccc1)c1cc(CO)ccc1O)C(C)C`
Reply text: 119

Inquiry: What value of cell viability has been reported for the following compound? CN1CCCC(CC1)N2\N=C(CC3=CC=C(Cl)C=C3)/C4=C(C=CC=C4)C2=O (centres undefined)
Reply text: 74.9

Inquiry: What value of cell viability has been reported for the following compound? `c1ccc(CNc2nc(N3CCOc4ccccc43)nc3c2CCCC3)cc1`
Reply text: 83.2

###

# System: P12-Ichikawa
# assay-method-text: cell viability relative to DMSO control; higher = less cytotoxic
# condition-notes: HPLM + 10% dialyzed FBS; 48 h; 0.19 µM
Measured cell viability of individual entries

1) CC(C)c1cc(C(=O)N2Cc3ccc(CN4CCN(C)CC4)cc3C2)c(O)cc1O	109%
2) C[C@]12CC[C@H]3[C@@H](CCC/4=C/C(=O)CC[C@]34C)[C@@H]1CC[C@@H]2O	124%
3) CC1=C(CC(=O)O)c2cc(F)ccc2/C1=C\c1ccc([S+](C)[O-])cc1 (centres undefined)	117%
4) Cc1cc(Nc2cc(CN3CCOCC3)c3nc(C)c(Cc4ccc(Cl)cc4F)n3n2)[nH]n1	111%
5) Cc1ccc([S+](=O)([O-])Nc2nc3ccccc3nc2Nc2ccc3nsnc3c2)cc1	116%

Inquiry: What value of cell viability has been reported for the following compound? `O=C(O)CCn1c2c(c3ccccc31)C[C@H](N[S+](=O)([O-])c1ccc(F)cc1)CC2`
Reply text: 106%

Inquiry: What value of cell viability has been reported for the following compound? `COc1cc2c(Nc3ccc(Br)cc3F)ncnc2cc1OCC1CCN(C)CC1`
Reply text: 88.4%

Inquiry: What value of cell viability has been reported for the following compound? `CN[C@@H](C)C(=O)N[C@H]1CN(C(=O)CC(C)C)CC[C@H]2CC[C@@H](C(=O)NC(c3ccccc3)c3ccccc3)N2C1=O`
Reply text: 102%

Inquiry: What value of cell viability has been reported for the following compound? `Nc1nnc(-c2cccc(Cl)c2Cl)c(N)n1`
Reply text: 106%

###

# System: SEM cells
# assay-method-text: cell viability relative to DMSO control; higher = less cytotoxic
# condition-notes: RPMI 5 mM glucose + 10% dialyzed FBS; 48 h; 0.00234 µM
experimental-readout: cell viability (%)
Record the value in %, omitting the unit from your answer.

Here are 2 compounds together with their reported answers.
1) CC1(N2CCC(n3c([C@@H]4CCCNC4)nc4ccccc43)CC2)CCCCCCC1	78.8
2) COc1cccc([C@@H](C)NCCCc2ccccc2Cl)c1	112

Inquiry: What value of cell viability has been reported for the following compound? `N#Cc1ccnc(Nc2cc(C3CCN(C4COC4)CC3)cc(N3CCC(F)(F)C3)n2)c1`
Reply text: 110

Inquiry: What value of cell viability has been reported for the following compound? `CN(C)c1nc(Cc2ccc(NC(=O)c3ccc4ccccc4c3)cc2)nc(Cl)c1CC(=O)O`
Reply text: 115

Inquiry: What value of cell viability has been reported for the following compound? `CN(C)CCOc1ccc(-c2nc(-c3ccncc3)c(-c3ccc4c(c3)CC/C4=N\O)[nH]2)cc1`
Reply text: 109

Inquiry: What value of cell viability has been reported for the following compound? COc1cc2nc(N3CCN(C(=O)C4CCCO4)CC3)nc(N)c2cc1OC (stereo unspecified)
Reply text: 125

###

# Test system: NOMO1
# assay-method-text: cell viability relative to DMSO control; higher = less cytotoxic
# condition-notes: HPLM + 10% dialyzed FBS; 48 h; 0.0211 µM
experimental-readout: cell viability (%)
Record the value in %, omitting the unit from your answer.

1. NCCCCNCCCN	112
2. COc1cc2nc(-c3cc(F)ccc3O)nc(N[C@@H]3CNC[C@H]3C(C)(C)O)c2cc1OC	128
3. Cc1ccc([S+](=O)([O-])Nc2nc3ccccc3nc2Nc2ccc3nsnc3c2)cc1	104
4. CC1(C)CNc2cc(NC(=O)c3cccnc3NCc3ccncc3)ccc21	137

Okay, now this compound:
Inquiry: What value of cell viability has been reported for the following compound? `O=C(O)/C=C/c1ccc(O)c(O)c1`
Reply text: 107

###

# Test system: NOMO1
# assay-method-text: cell viability relative to DMSO control; higher = less cytotoxic
# condition-notes: RPMI 5 mM glucose + 10% dialyzed FBS; 48 h; 0.00702 µM
Measured cell viability of individual entries
Record the value in %, omitting the unit from your answer.

1) O=C1Nc2ccc(I)cc2/C1=C/c1cc(Br)c(O)c(Br)c1	90.9
2) CN[C@@H](C)C(=O)N[C@H]1CN(C(=O)CC(C)C)CC[C@H]2CC[C@@H](C(=O)NC(c3ccccc3)c3ccccc3)N2C1=O	92.6
3) CN1\C(=C(\O)C2=C(C=CC=C2)[S+]1([O-])=O)C(=O)NC3=CC=CC=N3	100
4) CC1(C)CNc2cc(NC(=O)c3cccnc3NCc3ccncc3)ccc21	120
5) N#Cc1ccnc(Nc2cc(C3CCN(C4COC4)CC3)cc(N3CCC(F)(F)C3)n2)c1	110

Inquiry: What value of cell viability has been reported for the following molecule? `NCCCCNCCCN`
Reply text: 111

Inquiry: What value of cell viability has been reported for the following molecule? `Nc1ncnc2ccccc12`
Reply text: 79.2

Inquiry: What value of cell viability has been reported for the following molecule? CN1CCCC(CC1)N2\N=C(CC3=CC=C(Cl)C=C3)/C4=C(C=CC=C4)C2=O (centres undefined)
Reply text: 107

Inquiry: What value of cell viability has been reported for the following molecule? `CC[C@@]1(O)C(=O)OC\C2=C1\C=C\3N(CC4=C3N=C5C=CC=CC5=C4)C2=O`
Reply text: 121

###

# System: NOMO1
# assay-method-text: cell viability relative to DMSO control; higher = less cytotoxic
# condition-notes: RPMI 5 mM glucose + 10% dialyzed FBS; 48 h; 15.4 µM
experimental-readout: cell viability (%)
Record the value in %, omitting the unit from your answer.

Here are 4 compounds together with their reported answers.
1) COC1=CC=C(C=C1O)C/2=C/C(=O)C3=C(O2)C=C(O)C=C3O	92.5
2) COc1cccc([C@@H](C)NCCCc2ccccc2Cl)c1	106
3) N#Cc1ccnc(Nc2cc(C3CCN(C4COC4)CC3)cc(N3CCC(F)(F)C3)n2)c1	39.1
4) CC[C@@]1(O)C(=O)OCC/2=C1/C=C3\N(CC4=CC5=CC(=CC=C5N=C34)O)C2=O	26.4

Okay, now this compound:
Inquiry: What value of cell viability has been reported for the following compound? `CCC\C1=C\C(=O)NC(=S)N1`
Reply text: 100

###

# System: SEM cells
# assay-method-text: cell viability relative to DMSO control; higher = less cytotoxic
# condition-notes: HPLM + 10% dialyzed FBS; 48 h; 0.00234 µM
experimental-readout: cell viability (%)
Record the value in %, omitting the unit from your answer.

Here are 5 compounds together with their reported answers.
1. C[C@]12CC[C@H]3[C@@H](C\C=C/4C[C@@H](O)CC[C@]34C)[C@@H]1CCC2=O	98.2
2. C[S+](=O)([O-])c1ccc(C(=O)Nc2ccc(Cl)c(-c3ccccn3)c2)c(Cl)c1	98.7
3. O=C(Oc1ccc([N+](=O)[O-])cc1)N1CCC(C(O)(c2ccc3c(c2)OCO3)c2ccc3c(c2)OCO3)CC1	89.4
4. COc1ccc2[nH]c([S+]([O-])Cc3ncc(C)c(OC)c3C)nc2c1 (stereo not given)	84.8
5. O=C(Nc1ncc(SCCN2CCCC2)s1)[C@]1(c2ccc([S+](=O)([O-])C3CC3)cc2)C[C@H]1C1CCCCC1	111

Inquiry: What value of cell viability has been reported for the following compound? `O=C(O)/C=C/c1ccc(O)c(O)c1`
Reply text: 102

Inquiry: What value of cell viability has been reported for the following compound? `CC[C@H](NC(=O)[C@H](C)NC)C(=O)N1C[C@@H](O)C[C@H]1Cc1c(-c2[nH]c3cc(F)ccc3c2C[C@@H]2C[C@H](O)CN2C(=O)[C@H](CC)NC(=O)[C@H](C)NC)[nH]c2cc(F)ccc12`
Reply text: 122

Inquiry: What value of cell viability has been reported for the following compound? CC1=C(CC(=O)O)c2cc(F)ccc2/C1=C\c1ccc([S+](C)[O-])cc1 (stereo not given)
Reply text: 121
